For each record, write down the corresponding pKi CCK-A.
Target Under Test: CCK-A receptor
Assay Overview: CCK-receptor binding, CCK-A (Pancreas Assay)

Report pKi CCK-A on CCK-A receptor for this entry: O=CNc1cccc(NC(=O)NC2C(=O)N(CC34CC5CC(CC(C5)C3)C4)c3ccccc3N(c3ccccc3)C2=O)c1 (racemic) [Example 6]
5.95

Report pKi CCK-A on CCK-A receptor for this entry: O=C(Nc1cccc(NCC(O)CO)c1)NC1C(=O)N(CC23CC4CC(CC(C4)C2)C3)c2ccccc2N(c2ccccc2)C1=O (single isomer, unassigned; (+)) [Example 5]
5.13

Report pKi CCK-A on CCK-A receptor for this entry: O=C(Nc1cccc(CN2CCOCC2)c1)NC1C(=O)N(CC23CC4CC(CC(C4)C2)C3)c2ccccc2N(c2ccccc2)C1=O (single isomer, unassigned; (+)) [Example 1]
4.70

Report pKi CCK-A on CCK-A receptor for this entry: O=C(Nc1cccc(C(=O)OCCN2CCOCC2)c1)NC1C(=O)N(CC23CC4CC(CC(C4)C2)C3)c2ccccc2N(c2ccccc2)C1=O (single isomer, unassigned; (+)) [Example 4]
6.47

Report pKi CCK-A on CCK-A receptor for this entry: CC(=O)Nc1cccc(NC(=O)NC2C(=O)N(CC34CC5CC(CC(C5)C3)C4)c3ccccc3N(c3ccccc3)C2=O)c1 (racemic) [Example 7]
5.82

Report pKi CCK-A on CCK-A receptor for this entry: CCOC(=O)CCCOc1ccc(NC(=O)NC2C(=O)N(CC34CC5CC(CC(C5)C3)C4)c3ccccc3N(c3ccccc3)C2=O)cc1 (single isomer, unassigned; (+)) [Example 2]
< 5.0

Report pKi CCK-A on CCK-A receptor for this entry: O=C(O)CCCOc1ccc(NC(=O)NC2C(=O)N(CC34CC5CC(CC(C5)C3)C4)c3ccccc3N(c3ccccc3)C2=O)cc1 (single isomer, unassigned; (+)) [Example 3]
< 5.0

====

For each record, write down the corresponding Ki.
Target Under Test: CCK-B receptor (Cavia porcellus, UniProt H0VZC5)
Construct: CCK-B receptor (guinea pig cortex assay); from tissue; host or cells: guinea pig cortex
Sequence (H0VZC5 1-426): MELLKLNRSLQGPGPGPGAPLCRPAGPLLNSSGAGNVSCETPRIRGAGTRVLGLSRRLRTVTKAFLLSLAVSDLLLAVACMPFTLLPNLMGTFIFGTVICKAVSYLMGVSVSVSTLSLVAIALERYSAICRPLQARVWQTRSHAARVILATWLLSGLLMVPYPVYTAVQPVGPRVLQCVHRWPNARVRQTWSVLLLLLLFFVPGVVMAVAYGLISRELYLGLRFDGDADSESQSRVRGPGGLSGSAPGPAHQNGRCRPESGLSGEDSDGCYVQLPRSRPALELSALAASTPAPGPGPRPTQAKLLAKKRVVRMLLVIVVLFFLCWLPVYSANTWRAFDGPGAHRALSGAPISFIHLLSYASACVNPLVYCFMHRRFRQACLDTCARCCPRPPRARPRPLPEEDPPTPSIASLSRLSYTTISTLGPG
Assay Overview: CCK-receptor binding, CCK-B (guinea pig cortex assay)
Test Conditions: read-out: pKi CCK-B (converted)
Write it as a number; the unit nM goes unstated.

Please indicate Ki recorded for O=C(O)CCCOc1ccc(NC(=O)NC2C(=O)N(CC34CC5CC(CC(C5)C3)C4)c3ccccc3N(c3ccccc3)C2=O)cc1 (single isomer, unassigned; (+))
3.8

Please indicate Ki recorded for CCOC(=O)CCCOc1ccc(NC(=O)NC2C(=O)N(CC34CC5CC(CC(C5)C3)C4)c3ccccc3N(c3ccccc3)C2=O)cc1 (single isomer, unassigned; (+))
5.25

Please indicate Ki recorded for O=CNc1cccc(NC(=O)NC2C(=O)N(CC34CC5CC(CC(C5)C3)C4)c3ccccc3N(c3ccccc3)C2=O)c1 (racemic)
0.955

Please indicate Ki recorded for O=C(Nc1cccc(NCC(O)CO)c1)NC1C(=O)N(CC23CC4CC(CC(C4)C2)C3)c2ccccc2N(c2ccccc2)C1=O (single isomer, unassigned; (+))
0.676

Please indicate Ki recorded for O=C(Nc1cccc(C(=O)OCCN2CCOCC2)c1)NC1C(=O)N(CC23CC4CC(CC(C4)C2)C3)c2ccccc2N(c2ccccc2)C1=O (single isomer, unassigned; (+))
0.562

Please indicate Ki recorded for CC(=O)Nc1cccc(NC(=O)NC2C(=O)N(CC34CC5CC(CC(C5)C3)C4)c3ccccc3N(c3ccccc3)C2=O)c1 (racemic)
1.32

Numbers sourced from patent US5733867A.
